Exercise: state measured activation at 2 µM for each of the compounds provided.
system: acutely dissociated and purified rat OPCs; assay: Acute OL differentiation assay (MBP expression/cell, immunofluorescent image quantification); format: cell-based; conditions: Rattus norvegicus, test compound at 2 uM; MBP expression relative to quetiapine; NCC library screen, sheet "All OLga data"; read-out: 2 uM (% Quet)
I only need the number, in %, no unit after it.

Test item CNC[C@H](O)c1ccc(O)c(O)c1 [Epinephrine] ; acutely dissociated and purified rat OPCs; reported activation at 2 µM was -7.6

Test item C[C@@H]1C[C@H]2[C@@H]3CCC4=CC(=O)C=C[C@]4(C)[C@@]3(F)[C@@H](O)C[C@]2(C)[C@@]1(O)C(=O)CO ; acutely dissociated and purified rat OPCs; reported activation at 2 µM was 1.1

Test item NC[C@H](O)c1ccc(O)c(O)c1 [Norepinephrine] ; acutely dissociated and purified rat OPCs; reported activation at 2 µM was -1.9

Test item CN(C)[C@@H]1C(O)=C(C(N)=O)C(=O)[C@@]2(O)C(O)=C3C(=O)c4c(O)cccc4[C@@](C)(O)[C@H]3[C@H](O)[C@@H]12 ; acutely dissociated and purified rat OPCs; reported activation at 2 µM was -42.7

Test item CO/N=C(\C(=O)N[C@@H]1C(=O)N2C(C(=O)O)=C(COC(N)=O)CS[C@H]12)c1ccco1 ; acutely dissociated and purified rat OPCs; reported activation at 2 µM was 13.5

Test item CC1(C)S[C@@H]2[C@H](NC(=O)[C@H](N)c3ccccc3)C(=O)N2[C@H]1C(=O)O ; acutely dissociated and purified rat OPCs; reported activation at 2 µM was -10.9

Test item CC1(C)S[C@@H]2[C@H](NC(=O)[C@H](N)c3ccc(O)cc3)C(=O)N2[C@H]1C(=O)O ; acutely dissociated and purified rat OPCs; reported activation at 2 µM was 17.9

Test item CC(=O)OCC(=O)[C@@]1(O)CC[C@H]2[C@@H]3C[C@H](C)C4=CC(=O)C=C[C@]4(C)[C@H]3[C@@H](O)C[C@@]21C [Methylprednisolone acetate] ; acutely dissociated and purified rat OPCs; reported activation at 2 µM was 3.6

Test item Cn1cc[nH]c1=S ; acutely dissociated and purified rat OPCs; reported activation at 2 µM was -0.16

Test item COc1cc2nc(N3CCN(C(=O)C4COc5ccccc5O4)CC3)nc(N)c2cc1OC (stereo not drawn) ; acutely dissociated and purified rat OPCs; reported activation at 2 µM was -27.2

Test item CC(C)(C)NCC(O)c1cc(O)cc(O)c1 (stereo not drawn) ; acutely dissociated and purified rat OPCs; reported activation at 2 µM was 8.9

Test item OC(Cn1cncn1)(Cn1cncn1)c1ccc(F)cc1F ; acutely dissociated and purified rat OPCs; reported activation at 2 µM was 0.9

Test item CC(C)(C(=O)c1cccnc1)c1cccnc1 ; acutely dissociated and purified rat OPCs; reported activation at 2 µM was 9.9

Test item CC(C)NCC(O)c1cc(O)cc(O)c1 (stereo not drawn) ; acutely dissociated and purified rat OPCs; reported activation at 2 µM was -0.7

Test item CCCC(=O)Nc1ccc(OCC(O)CNC(C)C)c(C(C)=O)c1 (stereo not drawn) ; acutely dissociated and purified rat OPCs; reported activation at 2 µM was 7.8

Test item CC(=O)OCC[N+](C)(C)C ; acutely dissociated and purified rat OPCs; reported activation at 2 µM was -4.4

Test item Sc1ncnc2nc[nH]c12 ; acutely dissociated and purified rat OPCs; reported activation at 2 µM was 3.6

Test item COc1cc2nc(N3CCN(C(=O)C4CCCO4)CC3)nc(N)c2cc1OC (stereo not drawn) ; acutely dissociated and purified rat OPCs; reported activation at 2 µM was -10.8

Test item CC1(C)O[C@@H]2C[C@H]3[C@@H]4CCC5=CC(=O)C=C[C@]5(C)[C@@]4(F)[C@@H](O)C[C@]3(C)[C@]2(C(=O)CO)O1 ; acutely dissociated and purified rat OPCs; reported activation at 2 µM was 24.2

Test item CCCC1O[C@@H]2C[C@H]3[C@@H]4CCC5=CC(=O)C=C[C@]5(C)[C@H]4[C@@H](O)C[C@]3(C)[C@]2(C(=O)CO)O1 (stereo partly drawn) [Budesonide] ; acutely dissociated and purified rat OPCs; reported activation at 2 µM was 20.2

Test item CCc1cccc2c3c([nH]c12)C(CC)(CC(=O)O)OCC3 (stereo not drawn) ; acutely dissociated and purified rat OPCs; reported activation at 2 µM was 20.9

Test item NS(=O)(=O)c1cc2c(cc1C(F)(F)F)NC(Cc1ccccc1)NS2(=O)=O (stereo not drawn) [Bendroflumethiazide] ; acutely dissociated and purified rat OPCs; reported activation at 2 µM was -41.7

Test item CC(=O)OCC(=O)[C@@]1(O)CC[C@H]2[C@@H]3CCC4=CC(=O)C=C[C@]4(C)[C@H]3[C@@H](O)C[C@@]21C [Prednisolone acetate] ; acutely dissociated and purified rat OPCs; reported activation at 2 µM was -3.3

Test item CC(=O)OCC(=O)[C@@]12OC(C)(C)O[C@@H]1C[C@H]1[C@@H]3C[C@H](F)C4=CC(=O)C=C[C@]4(C)[C@@]3(F)[C@@H](O)C[C@@]12C [Fluocinonide] ; acutely dissociated and purified rat OPCs; reported activation at 2 µM was 12.4

Test item C=C[C@H]1C[N@@]2CC[C@H]1C[C@H]2[C@H](O)c1ccnc2ccc(OC)cc12 ; acutely dissociated and purified rat OPCs; reported activation at 2 µM was -22.9

Test item O=C(N[C@H](CO)[C@H](O)c1ccc([N+](=O)[O-])cc1)C(Cl)Cl ; acutely dissociated and purified rat OPCs; reported activation at 2 µM was 9.3

Test item CC(C[N+](C)(C)C)OC(N)=O (stereo not drawn) ; acutely dissociated and purified rat OPCs; reported activation at 2 µM was -1

Test item OC(CCN1CCCCC1)(c1ccccc1)C1CCCCC1 (stereo not drawn) ; acutely dissociated and purified rat OPCs; reported activation at 2 µM was -19.1

Test item Cn1cnc([N+](=O)[O-])c1Sc1ncnc2nc[nH]c12 ; acutely dissociated and purified rat OPCs; reported activation at 2 µM was -21.2

Test item CC(=O)OCC(=O)[C@@]1(O)CC[C@H]2[C@@H]3CCC4=CC(=O)CC[C@]4(C)[C@H]3C(=O)C[C@@]21C [Cortisone acetate] ; acutely dissociated and purified rat OPCs; reported activation at 2 µM was 8.6

Test item CC12CC3CC(C)(C1)CC(N)(C3)C2 [Memantine] ; acutely dissociated and purified rat OPCs; reported activation at 2 µM was -64.4

Test item CCOC(=O)[C@H](CCc1ccccc1)N[C@@H](C)C(=O)N1[C@H](C(=O)O)C[C@@H]2CCC[C@@H]21 ; acutely dissociated and purified rat OPCs; reported activation at 2 µM was 2.5

Test item C[C@@](Cc1ccc(O)c(O)c1)(NN)C(=O)O ; acutely dissociated and purified rat OPCs; reported activation at 2 µM was -35.6
